Please respond with reported TGI for every item in the list.
# Tested on: UO-31 renal
# assay_method_text: NCI tumour cell line growth inhibition, 48 h

Query string: Given the entry COc1ccc2c(c1)CCN1CCCc3ccccc3C21 (stereo not given) , what TGI was observed with UO-31 renal?
Result string: > 100 µM

Query string: Given the entry COC12CCC(C(C(=O)c3ccccc3)=C1C(=O)c1ccccc1)C(O)C2 (stereo not given) , what TGI was observed with UO-31 renal?
Result string: > 100 µM

Query string: Given the entry CNC(=S)NNc1ncnc2c1ncn2-c1ccc(C)cc1 , what TGI was observed with UO-31 renal?
Result string: > 100 µM

Query string: Given the entry O=S(=O)(NC1=NCCN1C(=S)SN1CCn2c1nsc2=S)c1ccccc1Cl , what TGI was observed with UO-31 renal?
Result string: > 100 µM

Query string: Given the entry Fc1ccc2c(c1)C1=C(CO2)C(c2ccc(Cl)cc2)NC(=S)N1 (stereo not given) , what TGI was observed with UO-31 renal?
Result string: 84 µM

====

Please respond with reported log10 of TGI for every item in the list.
# Tested on: OVCAR-4 ovarian
# assay_method_text: NCI tumour cell line growth inhibition, 48 h
Hi team, quick reminder: these entries are log10 of TGI (µM).

Query string: Would you mind telling me what log10 of TGI value was observed for C=C1C(=O)OC2/C=C(\CO)CC/C=C(\CO)CC(OC(=O)C(C)C)C12 (stereo not given) ?
Result string: 1.64

Query string: Would you mind telling me what log10 of TGI value was observed for CN(C)CCNC(=O)c1ccc(Cl)c2cc3ccccc3nc12 ?
Result string: 0.52

Query string: Would you mind telling me what log10 of TGI value was observed for CCN(CC)CCn1c2ccc(OC)cc2c2sc3cc(OC)ccc3c(=O)c21 ?
Result string: 0.69

Query string: Would you mind telling me what log10 of TGI value was observed for O=C(N/N=C/c1ccc(Cl)cc1Cl)c1ccc2nc(-c3ccc(Cl)cc3)[nH]c2c1 ?
Result string: 0.52

Query string: Would you mind telling me what log10 of TGI value was observed for CCN(CC)CCOC(=O)Cc1cccc2c(=O)cc(-c3ccccc3)oc12 ?
Result string: 1.80

Query string: Would you mind telling me what log10 of TGI value was observed for C=C1C(OC/C=C/COC2O[C@@H]3O[C@@]4(C)CC[C@H]5[C@H](C)CC[C@@H](C2=C)[C@@]35OO4)O[C@@H]2O[C@@]3(C)CC[C@H]4[C@H](C)CC[C@@H]1[C@@]24OO3 (stereo not given in full) ?
Result string: 1.42

====

# System: HOP-92 NSCLC
# assay_method_text: NCI tumour cell line growth inhibition, 48 h
Please respond with reported TGI for every item in the list.

Query string: Would you mind telling me what TGI value was observed for O=C(N/N=C(/COc1ccccc1Cl)N=Cc1ccncc1)c1ccncc1 ?
Result string: > 100 µM

Query string: Would you mind telling me what TGI value was observed for CCCN(CCC)C1CCc2c(ccc3cc[nH]c23)C1 (stereo unspecified) ?
Result string: > 100 µM

Query string: Would you mind telling me what TGI value was observed for N#CC[N+]1(Cc2ccccn2)CCCC1 ?
Result string: > 100 µM

Query string: Would you mind telling me what TGI value was observed for c1csc(-c2ccsc2-c2ccsc2)c1 ?
Result string: > 100 µM

Query string: Would you mind telling me what TGI value was observed for COc1c(Cl)ccc2c(-c3nc4cc(Cl)c(F)cc4s3)cc(=O)oc12 ?
Result string: 4.07 µM

Query string: Would you mind telling me what TGI value was observed for COc1cccc(C2SC(C)C(=O)N2CCc2cccs2)c1 (stereo unspecified) ?
Result string: 4.37 µM
